Target: T1, human MS4A4A ECL1 peptide (amino acid residues 86-98) (human)
T1 construct: synthetic peptide
T1 peptide: CMASNTYGSNPIS
Assay: peptide ELISA
Description: Briefly, 96-well polystyrene plates were coated with […] of synthetic free or BSA-conjugated peptides in coating buffer (0.05M carbonate buffer, pH9.6, Millipore Sigma Cat#C3041) overnight at 4° C. […] The quenched reaction wells were detected for absorbance at 650nm with a BioTek Synergy Microplate Reader using GENS 2.04 software.
property name: binding result

binder: anti-MS4A4A antibody 4A-217 (murine) (antibody, V domains shown, murine hybridoma antibody) VH: EVKLVESGGGLVKPGGSLKLSCAASGFTFSSYGMSWVRQTPEKRLEWVAHISGGGTFTHYPDSVKGRFTISRDNAKNNLYLQMSSLRSEDTALYYCAREGAGTRFAYWGQGTLVTVSS VL: DIQMTQTTSSLSASLGDRVTISCRPSQDISNSLNWYQQKPDGTVKLLIYSTSKLHSGVPSRFSGSGSGIDYSLTISNLEQEDIATYFCQQDYTLPWTFGGGTKLDVK
value measured: no binding

binder: anti-MS4A4A antibody 4A-201 (murine) (antibody, V domains shown, murine hybridoma antibody) VH: QVQLRESGPGLVAPSQSLSITCTVSGFSLSSFGVTWVRQPPGKGLEWLGIIWGDGSTNYHSALISRLSISKDNSKSQVFLKLNRLQTDDTATYYCAKRDYDGREDVMGYWGQGTSVTVSS VL: DIVMTQSQKFMSTSVGDRVSITCKATQNVRTAVAWYQQKPGQSPKPLIYLASNRHTGVPDRFTGSGSGTDFTLTITNVQSEDLADYFCLQHWSYPLTFGAGTKLEMK
value measured: no binding

binder: anti-MS4A4A antibody 4A-206 (murine) (antibody, V domains shown, murine hybridoma antibody) VH: EVKLVESGGGLVKPGGSLKLSCAASGFTFSSYTMSWVRQTPEKRLEWVASLSSGGSTYYPDSVKGRFTISRDNARNILYLQMSSLRSEDTAMYYCAKDYYVSSYRWYFDVWGAGTTVTVSS VL: DIQMTQITSSLSASLGDRVTISCRASQDISNYLNWYQQKPDGTVKLLIYYTSNLHSGVPSRFSGSGSGTDYSLTISNLEQEDIATYFCQQGKSFPWTFGGGTKLEIK
value measured: no binding
